The measured values listed here are drawn from the supplement of paper PMC10567573.

Record form. Attribute: protein stability index. Fill in for each entry.
B1: LOXL2 (parent)
chain: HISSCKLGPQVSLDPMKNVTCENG

- Variants of: B1
- Assay: protein stability index of a GFP-peptide fusion (GPS, HEK-293T) (PSI 1-6); higher = more stable;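 also: lentivirally expressed fusions sorted by FACS into six bins by GFP to DsRed ratio, PSI derived from sequencing read proportions per bin multiplied by bin number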
- Condition notes: c terminus: a fixed tail appended
Lab note: write the figure by itself, no unit.

What value of measured protein stability index is listed for K6G ?
3.97

What value of measured protein stability index is listed for T20Q ?
4.02

What value of measured protein stability index is listed for H1Q ?
3.95

What value of measured protein stability index is listed for G8H ?
3.63

What value of measured protein stability index is listed for T20S ?
4.08

What value of measured protein stability index is listed for H1M ?
3.95

What value of measured protein stability index is listed for Q10I ?
3.54

What value of measured protein stability index is listed for I2K ?
3.4

What value of measured protein stability index is listed for D14G ?
3.45

What value of measured protein stability index is listed for S3M ?
3.3

What value of measured protein stability index is listed for H1K ?
4.22

What value of measured protein stability index is listed for L7R ?
4.15

What value of measured protein stability index is listed for S4W ?
2.32

What value of measured protein stability index is listed for Q10D ?
4.58

What value of measured protein stability index is listed for N18T ?
3.89

What value of measured protein stability index is listed for S3N ?
4.24

What value of measured protein stability index is listed for K17W ?
3.05

What value of measured protein stability index is listed for D14F ?
2.46

What value of measured protein stability index is listed for E22Q ?
3.47

What value of measured protein stability index is listed for S12C ?
3.43

What value of measured protein stability index is listed for K17A ?
3.98

What value of measured protein stability index is listed for L7Q ?
4.32

What value of measured protein stability index is listed for S4T ?
3.65

What value of measured protein stability index is listed for C21D ?
4.79

What value of measured protein stability index is listed for S12I ?
3.68

What value of measured protein stability index is listed for G24W ?
2.93

What value of measured protein stability index is listed for S12V ?
3.92

What value of measured protein stability index is listed for V11A ?
4.03

What value of measured protein stability index is listed for I2Q ?
4.25

What value of measured protein stability index is listed for L7H ?
4.19

What value of measured protein stability index is listed for P15I ?
3.41

What value of measured protein stability index is listed for N23F ?
2.93

What value of measured protein stability index is listed for T20I ?
3.84

What value of measured protein stability index is listed for E22R ?
3.5

What value of measured protein stability index is listed for M16Q ?
4.43

What value of measured protein stability index is listed for N18K ?
4.19

What value of measured protein stability index is listed for C21N ?
4.14

What value of measured protein stability index is listed for P9R ?
3.76

What value of measured protein stability index is listed for K17M ?
3.22

What value of measured protein stability index is listed for N18R ?
3.44

What value of measured protein stability index is listed for G8W ?
1.87

What value of measured protein stability index is listed for C5Q ?
4.49

What value of measured protein stability index is listed for E22V ?
3

What value of measured protein stability index is listed for G24M ?
3.52

What value of measured protein stability index is listed for C5F ?
3.83

What value of measured protein stability index is listed for N23I ?
2.9

What value of measured protein stability index is listed for D14S ?
3.65

What value of measured protein stability index is listed for S3Y ?
2.62

What value of measured protein stability index is listed for K17G ?
3.45

What value of measured protein stability index is listed for L13G ?
4.61

What value of measured protein stability index is listed for S3P ?
3.99

What value of measured protein stability index is listed for M16D ?
4.75

What value of measured protein stability index is listed for C5Y ?
4

What value of measured protein stability index is listed for S12W ?
2.47

What value of measured protein stability index is listed for L13Y ?
3.5

What value of measured protein stability index is listed for C5E ?
4.95

What value of measured protein stability index is listed for K6D ?
4.9

What value of measured protein stability index is listed for E22H ?
3.18

What value of measured protein stability index is listed for K6S ?
4.34

What value of measured protein stability index is listed for H1Y ?
2.46

What value of measured protein stability index is listed for Q10K ?
3.77

What value of measured protein stability index is listed for T20G ?
3.87

What value of measured protein stability index is listed for G8R ?
3.29

What value of measured protein stability index is listed for P9T ?
3.95

What value of measured protein stability index is listed for T20H ?
3.85

What value of measured protein stability index is listed for H1G ?
4.46

What value of measured protein stability index is listed for N18D ?
4.34

What value of measured protein stability index is listed for S3L ?
3.19

What value of measured protein stability index is listed for P15R ?
3.82

What value of measured protein stability index is listed for V11G ?
3.25

What value of measured protein stability index is listed for P9M ?
2.69

What value of measured protein stability index is listed for V11T ?
4.07

What value of measured protein stability index is listed for Q10H ?
3.52

What value of measured protein stability index is listed for P9W ?
2.2

What value of measured protein stability index is listed for D14Y ?
2.8

What value of measured protein stability index is listed for H1P ?
4.33

What value of measured protein stability index is listed for K6M ?
4.15

What value of measured protein stability index is listed for C21R ?
3.94

What value of measured protein stability index is listed for I2R ?
4.11

What value of measured protein stability index is listed for S12H ?
4

What value of measured protein stability index is listed for K6F ?
2.98

What value of measured protein stability index is listed for N18V ?
3.78

What value of measured protein stability index is listed for Q10V ?
3.56

What value of measured protein stability index is listed for L13A ?
4.43

What value of measured protein stability index is listed for G24E ?
4.47

What value of measured protein stability index is listed for V11H ?
4.41

What value of measured protein stability index is listed for T20F ?
2.48

What value of measured protein stability index is listed for K17R ?
3.55

What value of measured protein stability index is listed for L7C ?
3.59

What value of measured protein stability index is listed for C5V ?
4.31

What value of measured protein stability index is listed for K6H ?
4
